Every entry's value here was drawn from ChEMBL document CHEMBL1140580.

- system_under_test: Melanocortin receptor 4 (Homo sapiens)
- Sequence (P32245 whole entry): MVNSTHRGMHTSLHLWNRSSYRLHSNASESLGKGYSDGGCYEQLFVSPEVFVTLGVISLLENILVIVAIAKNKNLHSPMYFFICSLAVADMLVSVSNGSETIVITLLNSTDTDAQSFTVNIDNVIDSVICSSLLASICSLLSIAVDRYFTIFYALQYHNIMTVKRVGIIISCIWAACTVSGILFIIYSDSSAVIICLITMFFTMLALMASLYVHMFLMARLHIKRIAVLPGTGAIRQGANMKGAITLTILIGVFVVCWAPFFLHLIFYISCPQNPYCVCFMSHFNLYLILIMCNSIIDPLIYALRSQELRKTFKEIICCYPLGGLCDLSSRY
- assay_comment: Agonist activity at MC4R assessed as stimulation of cAMP release relative to alphaMSH
- Assay type: functional
measured_metric: Intrinsic activity (%)

1) COc1ccc(CNCC2(N3CCN(C(=O)[C@H]4CN(C(C)C)C[C@@H]4c4ccc(Cl)cc4)CC3)CCCCC2)c(F)c1: 26
2) CC(C)N1C[C@H](C(=O)N2CCN(C3(CNCc4nccn4C)CCCCC3)CC2)[C@@H](c2ccc(Cl)cc2)C1: 31
3) CC(C)N1C[C@H](C(=O)N2CCN(C3(CNCc4ccncc4)CCCCC3)CC2)[C@@H](c2ccc(Cl)cc2)C1: 27
4) CC(=O)N1C[C@H](C(=O)N2CCN(C3(CNCc4ccccc4)CCCCC3)CC2)[C@@H](c2ccc(Cl)cc2)C1: 13
5) CC(C)N1C[C@H](C(=O)N2CCN(C3(CNCc4nccs4)CCCCC3)CC2)[C@@H](c2ccc(Cl)cc2)C1: 72

[1] CC(C)N1C[C@H](C(=O)N2CCN(C3(CNCc4c[nH]cn4)CCCCC3)CC2)[C@@H](c2ccc(Cl)cc2)C1
[2] NCCC(=O)N1C[C@H](C(=O)N2CCN(C3(CNCc4ccccc4)CCCCC3)CC2)[C@@H](c2ccc(Cl)cc2)C1
Q) Given 1 and 2 , report the one with the higher recorded Intrinsic activity. Respond using the label that marks the chosen record.
A) 1

[A] CC(C)N1C[C@H](C(=O)N2CCN(C3(CNCc4ccccc4F)CCCCC3)CC2)[C@@H](c2ccc(Cl)cc2)C1
[B] COC(=O)c1ccc(CNCC2(N3CCN(C(=O)[C@H]4CN(C(C)C)C[C@@H]4c4ccc(Cl)cc4)CC3)CCCCC2)cc1
[C] CC(C)Oc1ccc(CNCC2(N3CCN(C(=O)[C@H]4CN(C(C)C)C[C@@H]4c4ccc(Cl)cc4)CC3)CCCCC2)cc1
Q) rank_up(items): orders items by reported Intrinsic activity in ascending numerical order. // respond by listing labels in the order requested
A) C, B, A

[P] Cc1c(CNCC2(N3CCN(C(=O)[C@H]4CN(C(C)C)C[C@@H]4c4ccc(Cl)cc4)CC3)CCCCC2)cnn1C
[Q] CC(C)N1C[C@H](C(=O)N2CCN(C3(CNCc4cccc(F)c4)CCCCC3)CC2)[C@@H](c2ccc(Cl)cc2)C1
[R] O=C([C@H]1CN(C2CCCCC2)C[C@@H]1c1ccc(Cl)cc1)N1CCN(C2(CNCc3ccccc3)CCCCC2)CC1
Q) rank_up(items): orders items by reported Intrinsic activity in ascending numerical order. // respond by listing labels in the order requested
A) R, Q, P
(R: 16%, Q: 23%, P: 43%)

[1] CC(C)N1C[C@H](C(=O)N2CCN(C3(CNCc4ccsc4)CCCCC3)CC2)[C@@H](c2ccc(Cl)cc2)C1
[2] COc1ccc(CNCC2(N3CCN(C(=O)[C@H]4CN(C(C)C)C[C@@H]4c4ccc(Cl)cc4)CC3)CCCCC2)cc1
Q) Lab note: check whether 1 or 2 has the lower measured Intrinsic activity. Respond using the label that marks the chosen record.
A) 2
(2: 17%, 1: 31%)
